Cited source: patent US4975451A

Listed below: mortality at 100 ppm values for each entry.
System: pea aphid
Test: Foliar evaluation, pea aphid
Format: in vivo, Acryrthosiphon pisum
Conditions: Acyrthosiphon pisum, rate 100 ppm, 48 hours, read-out: % Kill PA
Answer with a number only, understood to be in %.

Below are worked cases with known answers.
{"molecule": "FC(F)(F)c1ccc(C(C=CCc2cccc(Oc3ccccc3)c2)C2CC2)cc1 (stereo not drawn)", "mortality at 100 ppm (%)": 45}
{"molecule": "Fc1ccc(CC=CC(c2ccc(OC(F)(F)F)cc2)C2CC2)cc1Oc1ccccc1 (stereo not drawn)", "mortality at 100 ppm (%)": 85}
{"molecule": "Fc1ccc(CC=CC(c2ccc(C(F)(F)F)cc2)C2CC2)cc1Oc1ccccc1 (stereo not drawn)", "mortality at 100 ppm (%)": 90}
{"molecule": "FC(F)(F)Oc1ccc(C(C=CCc2cccc(Oc3ccccc3)c2)C2CC2)cc1 (stereo not drawn)", "mortality at 100 ppm (%)": 100}
{"molecule": "Clc1ccc(C(C=CCc2cccc(Oc3ccccc3)c2)C2CC2)cc1 (stereo not drawn)", "mortality at 100 ppm (%)": 75}

Hey, pea aphid data for Fc1ccc(CC=CC(c2ccc(Cl)cc2)C2CC2)cc1Oc1ccccc1 (stereo not drawn) : mortality at 100 ppm came out at 80
